B1: COX4I1 (parent)
chain: FDKEWVAKQTKRMLDMKVNPIQGL

# Variants of: B1
# PROTOCOL_DESCRIPTION: protein stability index of a GFP-peptide fusion (GPS, HEK-293T) (PSI 1-6); higher = more stable;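 further: lentivirally expressed fusions sorted by FACS into six bins by GFP to DsRed ratio, PSI derived from sequencing read proportions per bin multiplied by bin number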
# STATED_CONDITIONS: c terminus: a fixed tail appended
Assign protein stability index to each entry below.
Numbers only.

K17E : 1.71
M13R : 1.64
K11N : 1.54
V6P : 1.86
D15M : 3.02
V6C : 1.53
M13A : 1.13
V6F : 1.55

I'm hoping you can list protein stability index for every variant here, please.
1. Q9P
2. Q9D
3. D2L

1. 2
2. 2.2
3. 1.09

Kindly give each listed record's protein stability index.
1. L14H
2. D2M

1. 1.65
2. 1.93

Hi! Can you tell me protein stability index for each of these variants?
1. V6I
2. T10S
3. W5D
4. T10H
5. K11W
6. D2K
7. K17Q
8. M16T

1: 1.35; 2: 1.08; 3: 4.22; 4: 1.69; 5: 1.52; 6: 1.62; 7: 1.41; 8: 1.79

For every listed record, write down its protein stability index.
1. D15P
2. F1L
3. N19H
4. T10N
5. Q9M
6. Q22F
7. V6T
8. P20Y

1: 1.84; 2: 3.57; 3: 1.7; 4: 1.73; 5: 2.54; 6: 1.73; 7: 1.93; 8: 2.05
